test system: OVCAR-3 ovarian; test: NCI-60 one-dose screen, 48 h (100 = growth as untreated, 0 = no growth, -100 = all killed); details: 10 µM unless noted
The panel holds about 83,000 compounds, 20% with a hit somewhere; the sample as a whole holds those more often.
experimentalEndpoint: growth (%)
The reply should be a number in %, with the unit left off.

Notebook: CCOC(=O)c1nnn(C(Cc2ccccc2Cl)C(=O)OCC)c1C (stereo unspecified) , growth read as 111

Notebook: O=C1CSC(c2ccc(O)cc2)N1c1nnc(Cn2cnnc2)o1 (stereo unspecified) , growth read as 15.2

Notebook: `Cc1c(C(=O)O)nnn1-c1nccs1` , growth read as 106

Notebook: `CC(C)n1nc(C#Cc2cccc3cc(-c4cccc(C(F)(F)F)c4)ncc23)c2c(N)ncnc21` , growth read as 91.2

Notebook: `COc1cc2c(c(OC)c1OC)C(=O)/C(=C/c1cc(C)c(O)c(C)c1)S2` , growth read as 8.16

Notebook: `CCn1c(Sc2nnc(NC(=O)CSC(=S)N3CCCCC3)s2)nc2c1c(=O)n(C)c(=O)n2C` , growth read as 56.5

----------
tested on: PC-3 prostate; experiment: NCI-60 one-dose screen, 48 h (100 = growth as untreated, 0 = no growth, -100 = all killed); settings: 10 µM unless noted
This is part of a sample that, as a whole, favours compounds with a hit. Of some 83,000 tested, about 20% had one in any assay.
Could you please report measured growth for the items listed next?
The reply should be a number in %, with the unit left off.

Notebook: `N#Cc1c(N)n2c(nc1=Nc1ccc([N+](=O)[O-])cc1)sc1cc(Cl)ccc12` , growth read as 81.8

Notebook: `CCc1cc(Cc2cc(CC)cc(C(C)(C)C)c2O)c(O)c(C(C)(C)C)c1` , growth read as 15.1

Notebook: `Cc1ccc(-n2nnc(C3=NCCc4c3[nH]c3ccc(Cl)cc43)c2C)cc1` , growth read as 62.1

Notebook: `CNCCNc1nc2ccccc2c2c(=O)c3cc(F)ccc3oc12` , growth read as 46.9

Notebook: `COc1ccc(OC)c(Nc2nc3nonc3nc2Nc2cccc(Br)c2)c1` , growth read as 1.15

Notebook: `COc1ccc(/C(C)=N/NS(=O)(=O)c2ccc(C)cc2)cc1OC` , growth read as 91.6

Notebook: `COc1cc(/C=C/c2nc(Nc3ccc(S(=O)(=O)Nc4cc(C)on4)cc3)c3ccccc3n2)ccc1O` , growth read as 80.4

Notebook: `CCn1c(Sc2nnc(Nc3ccccc3)s2)nc2c1c(=O)n(C)c(=O)n2C` , growth read as 100

Notebook: `CCOC(=O)c1ccc(NC(=O)CCCN(CC)CC)cc1` , growth read as 78.3

Notebook: CC(C)OC(=O)OCOP(=O)(OCOC(=O)OC(C)C)C1CCCN(O)C1=O (configuration not stated) , growth read as 60.5

Notebook: `CCCCS(=O)(=O)Oc1ccc(-c2nc(C)c(C(=O)OCC)s2)cc1C=O` , growth read as 53.9

Notebook: `CN1CCN(CCCOc2ccc3nc(Nc4cc(Cl)cc(Cl)c4)ccc3c2)CC1` , growth read as -57.8

Notebook: `Clc1ccc2c(NCCCN3CCN(c4nc(N5CCOCC5)nc5ccccc45)CC3)ccnc2c1` , growth read as 37.5

Notebook: `CC(=O)OCCc1ccccc1` , growth read as 99.2

Notebook: `O=C1/C(=C/c2ccccc2[N+](=O)[O-])COc2ccc(O)c(O)c21` , growth read as -0.516

Notebook: O=C1CSC(c2ccc(O)cc2)N1c1nnc(Cn2cnnc2)o1 (configuration not stated) , growth read as 88.7

Notebook: `CC(=O)c1sc(-c2ccccc2)cc1N` , growth read as 90.8

Notebook: `Clc1ccc(-c2nnc(Cn3ccnc3)o2)cc1` , growth read as 97.2

Notebook: CC(=O)Nc1cccc(C2=CC(c3ccc(C)cc3)n3ncnc3N2)c1 (configuration not stated) , growth read as 84.1

Notebook: `CN(C)c1ccc2cc(-c3ccc(Cl)c(Cl)c3)c(N)nc2c1` , growth read as 27.6

Notebook: `CCOc1ccc2nc(-c3cccc(OCC(=O)NC(C)C)c3)nc(Nc3ccc(-c4cn[nH]c4)cc3)c2c1` , growth read as 0.124

Notebook: `CN1CCN(C2=C(Cl)C(=O)c3ccccc3C2=O)CC1` , growth read as 60.5
